- test system: T1, hROR2ECD-his (human, UniProt Q01974 34-403)
- T1 construct: extracellular domain; bought, Acrobiosystems R02-H52E5; also called huROR2-his
- T1 sequence (Q01974 34-403): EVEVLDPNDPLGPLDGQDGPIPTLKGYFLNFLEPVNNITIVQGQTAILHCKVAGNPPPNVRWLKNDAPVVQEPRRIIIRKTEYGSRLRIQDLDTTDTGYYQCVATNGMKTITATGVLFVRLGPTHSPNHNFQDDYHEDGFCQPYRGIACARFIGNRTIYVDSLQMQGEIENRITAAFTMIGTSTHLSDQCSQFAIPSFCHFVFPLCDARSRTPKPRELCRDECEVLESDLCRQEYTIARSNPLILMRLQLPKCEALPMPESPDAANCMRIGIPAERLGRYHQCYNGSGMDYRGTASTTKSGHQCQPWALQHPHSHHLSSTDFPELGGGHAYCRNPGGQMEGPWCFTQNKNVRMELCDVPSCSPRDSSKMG
- test protocol: ELISA, plate coated with hROR2 ECD-his
- Method: Screening by ELISA assay: 96-well plates (Corning 9018) were coated with 1 μg/mL hROR1 ECD-his/hROR2 ECD-his/mROR1 ECD-his proteins prepared with PBS in Example 1a above and incubated at 4° C. overnight. The liquid was then discarded, and the plates were washed 3 times with PBST, blocked with 5% milk for 2 h at room temperature, and washed 3 times with PBST. […] Thereafter, the reaction was terminated and data were read. […]
measured endpoint: ELISA signal (called MFI)
I'd appreciate a reply containing only the number, no unit.

Please fill in: ELISA signal (called MFI) reported for PR001355 (antibody, human IgG1, kappa, V domains shown, fully human IgG1, kappa) VH: QVQLVQSGGGLVQPGGSLRLSCAASGFTFSSYGMHWVRQAPGKGLEWVAVIWYDGSNKDYADSVKGRFTISRDTSKNTLYLQMNSLRAEDTAVYYCVREQARSFDLWGRGTLVTVSS VL: DIQMTQSPSSLSASVGDRVTITCRASQTMNNWLAWYQQKPGKAPKLLIYKASSLESGVPSRFSGSGSGTEFTLTISSLQPDDSATYYCQQYNSYSPMYTFGQGTKLEIKR = 0.0285

Please fill in: ELISA signal (called MFI) reported for PR001366 (antibody, V domains shown, fully human IgG1, kappa) VH: QVQLVESGGGVVQPGRSLRLSCTASGFTFSSYGMHWVRQAPGKGLEWVAVKWYDGISQNFADSVKGRFTISRDNSKNTLYLQMNSLRAEDTAVYYCARDLARSFDIWGRGTLVTVSS VL: DIQLTQSPSTLSASVGDRVTITCRASQSINSWLAWYQQKPGKAPKLLIYKASSLESGVPSRFSGSGSGTEFTLTISSLQPDDFATYYCQQYKSYSPMYTFGQGTKVDIKR = 0.0305

Please fill in: ELISA signal (called MFI) reported for PR001417 (antibody, V domains shown, fully human IgG1, kappa) VH: QVQLVESGGGVVQPGRSLRLSCAASGFSFSSYAMHWVRQAPGRGLEWVAVIWYDGGDEDYIDSVKGRFTISRDDSKNTLYLQMNSLRAEDTAVYYCAREQARSFDLWGRGTLVTVSS VL: DVVMTQSPSTLSASVGDRVTITCRASQSINSWLAWYQQKPGKAPKLLIYKASSLESGVPSRFSGSGSGTEFTLTISSLQPDDFATYYCQQYNSYSPMYTFGQGTKVEIKR = 0.027
